Molecular target: EGFR L858R/T790M/C797S (Homo sapiens, UniProt P00533, C797S/L858R/T790M)
Sequence (P00533 25-1210 T790M/C797S/L858R): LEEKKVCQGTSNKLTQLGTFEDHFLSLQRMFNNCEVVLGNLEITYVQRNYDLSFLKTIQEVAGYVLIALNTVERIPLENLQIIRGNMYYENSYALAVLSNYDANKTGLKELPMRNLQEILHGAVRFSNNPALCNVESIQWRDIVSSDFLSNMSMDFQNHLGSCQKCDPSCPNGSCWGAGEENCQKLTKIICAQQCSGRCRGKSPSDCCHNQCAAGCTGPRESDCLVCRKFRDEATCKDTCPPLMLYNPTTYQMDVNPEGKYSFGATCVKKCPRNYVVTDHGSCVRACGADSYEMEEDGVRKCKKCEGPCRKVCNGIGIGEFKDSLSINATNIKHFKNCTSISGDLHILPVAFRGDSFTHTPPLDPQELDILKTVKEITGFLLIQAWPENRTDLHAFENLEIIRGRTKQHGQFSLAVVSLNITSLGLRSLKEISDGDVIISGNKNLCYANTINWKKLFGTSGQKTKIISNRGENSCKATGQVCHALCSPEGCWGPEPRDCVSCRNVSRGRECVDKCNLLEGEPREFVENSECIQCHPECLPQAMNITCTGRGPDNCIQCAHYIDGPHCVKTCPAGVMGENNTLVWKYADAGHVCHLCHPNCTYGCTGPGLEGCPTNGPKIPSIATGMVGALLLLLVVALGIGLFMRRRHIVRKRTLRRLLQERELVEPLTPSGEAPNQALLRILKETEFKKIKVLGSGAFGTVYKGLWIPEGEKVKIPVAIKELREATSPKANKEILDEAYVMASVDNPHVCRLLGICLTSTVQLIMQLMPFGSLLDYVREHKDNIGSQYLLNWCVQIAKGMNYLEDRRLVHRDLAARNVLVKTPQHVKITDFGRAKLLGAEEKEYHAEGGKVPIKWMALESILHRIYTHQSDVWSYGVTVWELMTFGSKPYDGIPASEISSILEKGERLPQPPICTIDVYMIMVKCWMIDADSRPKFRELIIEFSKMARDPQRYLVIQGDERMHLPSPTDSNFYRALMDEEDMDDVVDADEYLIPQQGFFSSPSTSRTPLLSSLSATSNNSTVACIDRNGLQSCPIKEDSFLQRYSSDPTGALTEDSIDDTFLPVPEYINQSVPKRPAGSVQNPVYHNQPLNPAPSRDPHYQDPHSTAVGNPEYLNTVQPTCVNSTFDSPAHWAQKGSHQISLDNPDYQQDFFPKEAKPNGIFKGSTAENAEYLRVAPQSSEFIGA
Assay: EGFR enzyme inhibitory activity evaluation (Z'-LYTE kinase assay), L858R/T790M/C797S
Attribute: IC50

Worked examples, 2 molecules total:
>>> reported("CN1CC2(C1)CN(c1ccc(Nc3nc(Nc4ccccc4N(C)S(C)(=O)=O)c4cc[nH]c4n3)cc1F)C2")
"13 nM"
>>> reported("CCN1CCN(C2CCN(c3ccc(Nc4nc(Nc5ccccc5N(C)S(C)(=O)=O)c5cc[nH]c5n4)cc3F)CC2)CC1")
"4 nM"

Kindly consider the entry below.
Prompt: Look up and report measured IC50 for this entry: CCCN1CCN(C2CCN(c3ccc(Nc4nc(Nc5ccccc5N(C)S(C)(=O)=O)c5cc[nH]c5n4)cc3F)CC2)CC1
Response: 4 nM

###

System: Ba/F3 EGFR del19/T790M/C797S cells
Assay: Ba/F3 EGFR del19/T790M/C797S cell growth inhibition test (CellTiter-Glo, 72 hours)
Assay type: cell-based
Conditions: Ba/F3 cell line overexpressing EGFR del19/T790M/C797S, 72 hours, CellTiter-Glo; read-out: Ba/F3 EGFR del19/T790M/C797S cells, GI50
// returns No unless GI50 is strictly below 0.04 µM, in which case Yes

Prompt: Just wondering, is GI50 of CCN(c1ccccc1Nc1nc(Nc2ccc(N3CCN(C)CC3)c(F)c2)nc2[nH]ccc12)S(C)(=O)=O below 0.04 µM?
Response: Yes

Prompt: Hello, I'm reviewing records and need to know if GI50 of CN(c1ccccc1Nc1nc(Nc2ccc(N3CCC4(CCOCC4)CC3)c(F)c2)nc2[nH]ccc12)S(C)(=O)=O is below 0.04 µM. Could you check?
Response: No

Prompt: For CN1CCN(c2ccc(Nc3nc(Nc4ccccc4N(C)S(C)(=O)=O)c4nc[nH]c4n3)cc2F)CC1 , is the recorded GI50 below the cut-off of 0.04 µM?
Response: No

Prompt: Hi there! Is GI50 for Cc1c[nH]c2nc(Nc3ccc(N4CCN(C)CC4)c(F)c3)nc(Nc3ccccc3N(C)S(C)(=O)=O)c12 below 0.04 µM, do you know?
Response: Yes

Prompt: Below 0.04 µM on GI50? Entry Cc1cc(Nc2nc(Nc3ccccc3N(C)S(C)(=O)=O)c3cc[nH]c3n2)ccc1N1CCN(C)CC1
Response: Yes

###

Test system: Ba/F3 EGFR del19/T790M/C797S cells
Assay: Ba/F3 EGFR del19/T790M/C797S cell growth inhibition test (CellTiter-Glo, 72 hours);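 also: compounds tested in tenfold steps from 10 µM down to 0.1 nM, with luminescence read on a microplate reader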
Format: cell-based
Details: Ba/F3 cell line overexpressing EGFR del19/T790M/C797S, 72 hours, CellTiter-Glo; read-out: Ba/F3 EGFR del19/T790M/C797S cells, GI50
readout.kind: GI50
# answer = value followed by unit

>>> reported("CN(c1ccccc1Nc1nc(Nc2ccc(N3CCOCC3)c(F)c2)nc2[nH]ccc12)S(C)(=O)=O [Example 12]")
"4.2 nM"

Prompt: Output GI50 of CN1CCN(C2CCN(c3ccc(Nc4nc(Nc5ccccc5N(C)S(C)(=O)=O)c5c(F)c[nH]c5n4)cc3F)CC2)CC1 [Example 64]
Response: 28 nM

Prompt: Please give the documented GI50 of CCS(=O)(=O)N(C)c1ccccc1Nc1nc(Nc2ccc(N3CCN(C)CC3)c(F)c2)nc2[nH]ccc12 [Example 46]
Response: 16 nM

Prompt: Find the measured GI50 of CN1CCN(c2ccc(Nc3nc(Nc4ccccc4N(C)S(C)(=O)=O)c4c(Cl)c[nH]c4n3)cn2)CC1 [Example 59] and report it.
Response: 41 nM

Prompt: Name the recorded GI50 of the item CN1C[C@@H]2CN(c3ccc(Nc4nc(Nc5ccccc5N(C)S(C)(=O)=O)c5cc[nH]c5n4)cc3F)C[C@@H]2C1 [Example 41] in your answer.
Response: 141 nM

Prompt: Consider the compound CCN1CCC2(CC1)CCN(c1ccc(Nc3nc(Nc4ccccc4N(C)S(C)(=O)=O)c4cc[nH]c4n3)cc1F)CC2 [Example 32] . State its measured GI50.
Response: 11 nM

Prompt: Indicate the recorded GI50 value for this compound: CN(c1ccccc1Nc1nc(Nc2ccc(N3CCCCC3)c(F)c2)nc2[nH]ccc12)S(C)(=O)=O [Example 22]
Response: 371 nM
